Target: S29A PncC (Escherichia coli, UniProt P0A6G3, S29A)
Construct: made in house; host or cells: E. coli BL21(DE3)
Sequence (P0A6G3 whole entry S29A): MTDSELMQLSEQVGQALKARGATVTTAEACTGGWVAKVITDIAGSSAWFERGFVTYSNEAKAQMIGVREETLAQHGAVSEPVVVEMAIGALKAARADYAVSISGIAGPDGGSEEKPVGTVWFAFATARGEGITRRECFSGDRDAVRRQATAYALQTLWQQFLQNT
Format: binding, E. coli
Details: nucleotide 24 µM
reported.endpoint: S29A PncC fluorescence quenching (%) vs buffer

{"compound": "NC(=O)c1ccc[n+]([C@@H]2O[C@H](COP(=O)(O)OP(=O)([O-])OC[C@H]3O[C@@H](n4cnc5c(N)ncnc54)[C@H](OP(=O)(O)O)[C@@H]3O)[C@@H](O)[C@H]2O)c1", "unit.label": "%", "numeric.value": 4.31}
{"compound": "NC(=O)c1ccc[n+]([C@@H]2O[C@H](COP(=O)([O-])OP(=O)(O)OC[C@H]3O[C@@H](n4cnc5c(N)ncnc54)[C@H](O)[C@@H]3O)[C@@H](O)[C@H]2O)c1 [NAD, nicotinamide adenine dinucleotide]", "unit.label": "%", "numeric.value": 2.54}
{"compound": "NC(=O)c1cccnc1 [Nam, nicotinamide]", "unit.label": "%", "numeric.value": 3.29}
{"compound": "NC(=O)c1ccc[n+]([C@@H]2O[C@H](CO)[C@@H](O)[C@H]2O)c1 [NR, nicotinamide riboside]", "unit.label": "%", "numeric.value": 3.13}

###

Molecular target: K61Q PncC (Escherichia coli, UniProt P0A6G3, K61Q)
Construct: made in house; host or cells: E. coli BL21(DE3)
Sequence (P0A6G3 whole entry K61Q): as the sequence (P0A6G3 whole entry S29A) above, with A29S, K61Q counted along it
Type: binding, E. coli
Conditions: nucleotide 0.75 µM
reported.endpoint: K61Q PncC fluorescence quenching (%) vs buffer

{"molecule": "Nc1ncnc2c1ncn2[C@@H]1O[C@H](COP(=O)(O)OP(=O)([O-])OC[C@H]2O[C@@H]([n+]3cccc(C(=O)O)c3)[C@H](O)[C@@H]2O)[C@@H](O)[C@H]1O [NaAD, nicotinic acid adenine dinucleotide]", "numeric.value": 1.68}
{"molecule": "O=C(O)c1ccc[n+]([C@@H]2O[C@H](COP(=O)([O-])O)[C@@H](O)[C@H]2O)c1 [NaMN, nicotinic acid mononucleotide]", "numeric.value": 2.05}
{"molecule": "NC(=O)c1ccc[n+]([C@@H]2O[C@H](COP(=O)([O-])OP(=O)(O)OC[C@H]3O[C@@H](n4cnc5c(N)ncnc54)[C@H](O)[C@@H]3O)[C@@H](O)[C@H]2O)c1 [NAD, nicotinamide adenine dinucleotide]", "numeric.value": 1.57}
{"molecule": "NC(=O)c1cccnc1 [Nam, nicotinamide]", "numeric.value": 0.87}
{"molecule": "NC(=O)c1ccc[n+]([C@@H]2O[C@H](CO)[C@@H](O)[C@H]2O)c1 [NR, nicotinamide riboside]", "numeric.value": 3.37}
{"molecule": "NC(=O)c1ccc[n+]([C@@H]2O[C@H](COP(=O)(O)OP(=O)([O-])OC[C@H]3O[C@@H](n4cnc5c(N)ncnc54)[C@H](OP(=O)(O)O)[C@@H]3O)[C@@H](O)[C@H]2O)c1", "numeric.value": 0.29}
{"molecule": "O=C(O)c1cccnc1", "numeric.value": 2.11}
{"molecule": "NC(=O)c1ccc[n+]([C@@H]2O[C@H](COP(=O)([O-])O)[C@@H](O)[C@H]2O)c1 [NMN, nicotinamide mononucleotide]", "numeric.value": 3.19}

###

Target: K61Q PncC (Escherichia coli, UniProt P0A6G3, K61Q)
Construct: made in house; host or cells: E. coli BL21(DE3)
Assay type: binding, E. coli
Conditions: nucleotide 48 µM
reported.endpoint: K61Q PncC fluorescence quenching (%) vs buffer

{"compound": "NC(=O)c1ccc[n+]([C@@H]2O[C@H](CO)[C@@H](O)[C@H]2O)c1 [NR, nicotinamide riboside]", "numeric.value": 1.79}
{"compound": "NC(=O)c1cccnc1 [Nam, nicotinamide]", "numeric.value": 1.14}
{"compound": "NC(=O)c1ccc[n+]([C@@H]2O[C@H](COP(=O)([O-])O)[C@@H](O)[C@H]2O)c1 [NMN, nicotinamide mononucleotide]", "numeric.value": 38.03}
{"compound": "O=C(O)c1ccc[n+]([C@@H]2O[C@H](COP(=O)([O-])O)[C@@H](O)[C@H]2O)c1 [NaMN, nicotinic acid mononucleotide]", "numeric.value": 7.14}
{"compound": "NC(=O)c1ccc[n+]([C@@H]2O[C@H](COP(=O)([O-])OP(=O)(O)OC[C@H]3O[C@@H](n4cnc5c(N)ncnc54)[C@H](O)[C@@H]3O)[C@@H](O)[C@H]2O)c1 [NAD, nicotinamide adenine dinucleotide]", "numeric.value": 0.72}
{"compound": "O=C(O)c1cccnc1", "numeric.value": 3.69}
{"compound": "NC(=O)c1ccc[n+]([C@@H]2O[C@H](COP(=O)(O)OP(=O)([O-])OC[C@H]3O[C@@H](n4cnc5c(N)ncnc54)[C@H](OP(=O)(O)O)[C@@H]3O)[C@@H](O)[C@H]2O)c1", "numeric.value": 2.90}

###

System: glutamine binding protein (GlnBP)
Details: GlnBP, high concentration of nucleotide
reported.endpoint: reduction of fluorescence of GlnBP

{"molecule": "O=C(O)c1cccnc1", "result": "do not affect"}
{"molecule": "NC(=O)c1cccnc1 [Nam, nicotinamide]", "result": "do not affect"}
{"molecule": "NC(=O)c1ccc[n+]([C@@H]2O[C@H](CO)[C@@H](O)[C@H]2O)c1 [NR, nicotinamide riboside]", "result": "do not affect"}
